Origin of the recorded values: patent US20260250318A1

test system: brain; assay: Maturation of TTM-001 capsid, NGS enrichment in brain of CD-1 Outbred mice; format: in vivo; conditions: NGS fold-enrichment of TTM-001 matured AAV capsid variants in the brain of CD-1 Outbred mice; intravenous 1.0×10^12 VG/dose; 14 days in life; RNA; relative to non-matured TTM-001 control
quantity_measured: Fold enrichment over TTM-001
Returns: string containing the number followed by the unit.

Please look up its Fold enrichment over TTM-001: KTINGSGSPHSKRSLQQT
2.270 fold

Can you look up the measured Fold enrichment over TTM-001 of KTINGSGSPHSKAQRRLT for me?
4.227 fold

Which Fold enrichment over TTM-001 reading was recorded for the sequence KTINGSGSPHRWAQNQQT ?
2.350 fold

Can you look up the measured Fold enrichment over TTM-001 of KTINGSGSPHYLVQNQQT for me?
3.819 fold

Item under review: KTINGSGSPHSKAQGVKT . Reported Fold enrichment over TTM-001?
2.002 fold
